system-name: Steroidogenic factor 1 (Homo sapiens)
Sequence (Q13285 whole entry): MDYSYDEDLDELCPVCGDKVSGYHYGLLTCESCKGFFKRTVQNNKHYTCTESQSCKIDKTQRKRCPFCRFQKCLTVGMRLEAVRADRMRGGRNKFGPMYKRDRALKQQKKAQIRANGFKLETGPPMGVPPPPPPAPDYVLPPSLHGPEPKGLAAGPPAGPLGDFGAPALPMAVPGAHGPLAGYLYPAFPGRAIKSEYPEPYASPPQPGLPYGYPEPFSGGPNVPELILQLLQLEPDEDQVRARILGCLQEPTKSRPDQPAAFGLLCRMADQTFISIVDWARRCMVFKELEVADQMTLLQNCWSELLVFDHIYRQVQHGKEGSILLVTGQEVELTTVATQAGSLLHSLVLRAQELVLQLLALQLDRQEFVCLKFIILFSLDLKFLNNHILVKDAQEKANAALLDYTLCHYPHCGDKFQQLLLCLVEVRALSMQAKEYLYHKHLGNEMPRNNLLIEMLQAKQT
protocol-details: Binding affinity to human SF1 relative to 3-Hexyl-1-phenylamino-2-phenyl-cis-bicyclo[3.3.0]oct-2-ene1 by FRET-based peptide recruitment assay
measure: Efficacy (%)
Write down the numeric answer in % and omit the unit.

These solved cases illustrate the format of a correct answer.
input: Please look at CCCCCCC1=C(c2ccccc2)[C@]2(Nc3ccc(Cl)cc3)CCC[C@@H]2C1 (relative stereo) and tell me its recorded Efficacy on Steroidogenic factor 1 (Homo sapiens).
output: 25

input: Look up and report Efficacy, with Steroidogenic factor 1 (Homo sapiens) as system, for CCCCCCC1=C(c2ccccc2)[C@]2(Nc3cccc(F)c3)CCC[C@@H]2C1 (relative stereo)
output: 70

The record that follows has no Efficacy shown yet.
input: Using Steroidogenic factor 1 (Homo sapiens) as the test system, report measured Efficacy of CCCCC(C)C1=C(c2ccccc2)[C@]2(Nc3ccccc3)CCC[C@@H]2C1 (relative stereo) .
output: 90
